- System: SK-MEL-28 melanoma
- MEASUREMENT_PROTOCOL: NCI-60 one-dose screen, 48 h (100 = growth as untreated, 0 = no growth, -100 = all killed)
- ASSAY_SETUP: 10 µM unless noted
About 83,000 compounds went through this panel and 20% of them were active in at least one assay; those are over-represented in the sample as a whole.
I'd appreciate it if you could supply growth values for the items below.
The response must be a number in % with no trailing unit.

[Q] Fill in the blank: the reported growth of `COc1cccc(CNc2c3ccccc3nc3ccccc23)c1OC` is ____.
[A] 66.1

[Q] Can you handle `O=c1oc2c(cc1-c1ccccc1)c[n+]([O-])c1ccccc21` next?
[A] 109

[Q] Can you handle `Cc1nn(-c2ccc([N+](=O)[O-])cc2)c2ncnc(N/N=C/c3ccccc3O)c12` next?
[A] 22

[Q] Can you handle `COc1ccc(Nc2ncc(I)c(NCCCNC(=O)C3CCC3)n2)cc1` next?
[A] 43.4

[Q] Can you handle `Cn1c(C#N)ccc1-c1ccc(F)c(NC(=O)c2ccc(F)cc2)c1` next?
[A] 86.5

[Q] Can you handle `COc1ccc(-c2cc(-c3cn(-c4cccc(Cl)c4)nc3-c3ccc(OC)cc3)on2)cc1` next?
[A] 105

[Q] Can you handle Nc1ncnc2c1N=C(c1ccc(F)cc1)CC(c1cccc(Nc3ccnc4cc(Cl)ccc34)c1)N2 (centres undefined) next?
[A] 95.3

[Q] Can you handle `N#Cc1c(-c2ccccc2)nc2c(c(-c3ccc(Cl)cc3)nn2-c2ccccc2)c1-c1ccc([N+](=O)[O-])cc1` next?
[A] 102

[Q] Can you handle `CCOC(=O)c1c(C)nc2c(c1N)C(=O)C(=O)N2Cc1ccc(OC)cc1` next?
[A] 76.7

[Q] Can you handle `CCCCCCCCn1ccc2cc(NC(=O)CN=[N+]=[N-])ccc21` next?
[A] 109

[Q] Can you handle `COc1cc(/C=C/C(=O)c2cccc(-n3cc(-c4ccc(Cl)cc4)[nH]c3=O)c2)ccc1O` next?
[A] 58.6

[Q] Can you handle `COc1ccc(Oc2ccc(/C=C/C(=O)c3cc4ccccc4oc3=O)cc2)cc1` next?
[A] 98.6

[Q] Can you handle `COc1ccc(C/C(C)=C(\c2ccc(Cl)cc2)c2ccc(OCCN3CCCC3)cc2)cc1` next?
[A] 91.4

[Q] Can you handle `COc1ccc(C=Nc2c(C(=O)Nc3cccc(Cl)c3C)sc3nc(C)c(C(=O)/C=C/c4ccc(OC)cc4)cc23)cc1` next?
[A] 38.3

[Q] Can you handle `O=C(CSc1nnnn1-c1ccccc1)Nc1ccc(Oc2ccccc2)cc1` next?
[A] 100

[Q] Can you handle `COC(=O)c1sccc1-c1cc(O)c(C(=O)Nc2ccccc2)s1` next?
[A] 110

[Q] Can you handle O=C(/C=C/C12c3ccccc3C(c3ccccc31)C1C(=O)NC(=O)C12)c1ccco1 (centres undefined) next?
[A] 44.3

[Q] Can you handle `C=CCN=c1sc(-c2ccc3ccccc3c2)cn1NC(=O)c1cc2ccc1CCc1ccc(cc1)CC2` next?
[A] 72.2

[Q] Can you handle `CNCC[C@H](Oc1cccc2ccccc12)c1cccs1` next?
[A] 91.5

[Q] Can you handle `Cn1cc(-c2csc(-c3cn(CCCN4CCOCC4)c4ccc(F)cc34)n2)c2cccnc21` next?
[A] 77.5

[Q] Can you handle `COCCn1cc(-c2nc(-c3cc4cccnc4n3C)cs2)c2ccccc21` next?
[A] 73.1

[Q] Can you handle `C=C(c1ccc(C(=O)O)c(F)c1)c1cc2c(cc1C)C(C)(C)CCC2(C)C` next?
[A] 89.9

[Q] Can you handle `N[C@@H]1CCC[C@H]1NCCCCN1C(=O)c2cccc3cc([N+](=O)[O-])cc(c23)C1=O` next?
[A] 85.7

[Q] Can you handle COc1ccc2c(c1)CC[C@@H]1[C@@H]2CC[C@]2(C)C3C(=CC(COC(C)=O)C4C(=O)N(c5ccc(Cl)cc5)C(=O)C43)C[C@@H]12 (some centres undefined) next?
[A] 106

[Q] Can you handle `COc1cc(/C=C/C(=O)N2CCN(C(=O)c3cc(OC)c(OC)c(OC)c3)CC2)ccc1OCCCOc1cc2c(cc1OC)C(=O)N1CCC[C@H]1C=N2` next?
[A] -47.3

[Q] Can you handle `COc1cc(-c2ccc(-c3ccc(C(=N)N)cc3)s2)cc(OC)c1OC` next?
[A] 77.3

[Q] Can you handle `C=C1C(=O)O[C@H]2[C@H]1CC/C(COC(=O)NCc1ccc(Cn3c(=O)sn(-c4ccccc4)c3=O)cc1)=C\CC[C@@]1(C)O[C@@H]21` next?
[A] 47

[Q] Can you handle `C=C1SC(=Nc2ccccc2Cl)N(C(=O)c2sc3ccccc3c2Cl)C1(C)C` next?
[A] 113

[Q] Can you handle COC12C=C/C(=C(/C(=O)OCc3csc(SC)n3)C(=O)CCCCCCCCC3(OC)C=C/C(=C(/C(=O)OCc4cnc(SC)s4)C(=O)CCCCCCCC1)O3)O2 (centres undefined) next?
[A] 36.3

----------
- Tested on: SF-295 CNS
- MEASUREMENT_PROTOCOL: NCI-60 one-dose screen, 48 h (100 = growth as untreated, 0 = no growth, -100 = all killed)
- ASSAY_SETUP: 10 µM unless noted
About 83,000 compounds went through this panel and 20% of them were active in at least one assay; those are over-represented in the sample as a whole.
growth of 90% or higher: satisfied. Under 90%: not satisfied.

[Q] State whether the measured growth reaches 90%, counting equality as reaching it, for [N-]=[N+]=NCC1OC(n2cnc3c(NC(=O)Nc4ccccc4)ncnc32)C2OC(=O)CC12 (stereo not given)
[A] satisfied

[Q] Can you handle CS(=O)/C(C#N)=C\C=C\c1cccc(Cl)c1 (stereo not given) next?
[A] not satisfied

[Q] Can you handle CC1(C)CC(=O)C2=C(C1)C(c1ccc(Cl)cc1)n1ncc(C#N)c1N2 (stereo not given) next?
[A] satisfied

[Q] Can you handle `O=[N+]([O-])c1c(O)c(Cl)cc(Cl)c1Cl` next?
[A] satisfied

[Q] Can you handle COCCOC(C)C(/C=N/NC(N)=S)=N/NC(N)=S (stereo not given) next?
[A] not satisfied

[Q] Can you handle `C=C(C)[C@@H]1CC[C@]2(C)[C@H](C=CC3=C4C[C@@](C)(CO)CC[C@]4(C)CC[C@]32C)[C@@]1(C)CCCN` next?
[A] not satisfied

[Q] Can you handle `COc1ccc(Oc2ccc(/C=C/C(=O)c3cc4ccccc4oc3=O)cc2)cc1` next?
[A] satisfied

[Q] Can you handle CCOC(=O)c1cnn(CC(C)O)c1NC(=O)NCc1cccc(F)c1 (stereo not given) next?
[A] satisfied

[Q] Can you handle `COc1cc([C@@H](CCO)C[C@H](C)c2ccc3ccccc3c2)cc(OC)c1OC` next?
[A] not satisfied

[Q] Can you handle `CN(C)CCCNC(=O)c1cncnc1Nc1ccc2c(ccn2Cc2cccc(F)c2)c1` next?
[A] satisfied

[Q] Can you handle `CCOC(=O)C/C(=N\Nc1cc(=O)[nH]c2ccc(OC)cc12)C(=O)OCC` next?
[A] satisfied

[Q] Can you handle CC[C@@H](C(=O)[C@@H](C)[C@@H](O)[C@H](C)[C@@H]1O[C@@H]([C@@H](CC)C(=O)ONC(=O)c2ccccc2O)CC[C@@H]1C)C1O[C@]2(C=CC(=O)[C@]3(CC[C@@](C)([C@H]4CC[C@](O)(CC)[C@H](C)O4)O3)O2)[C@H](C)C[C@@H]1C (stereo not given in full) next?
[A] not satisfied

[Q] Can you handle `Cc1nn(-c2ccc([N+](=O)[O-])cc2)c2ncnc(N/N=C/c3ccccc3O)c12` next?
[A] not satisfied

[Q] Can you handle `C[C@H]1[C@H](C)CC[C@]2(C(=O)NCCNCCN)CC[C@]3(C)C(=CC[C@@H]4[C@@]5(C)CCC(=O)C(C)(C)[C@@H]5CC[C@]43C)[C@H]12` next?
[A] satisfied

[Q] Can you handle O=C(CN1C(=O)S/C(=C\C(Cl)=C\c2ccccc2)C1=O)NC1CCS(=O)(=O)C1 (stereo not given) next?
[A] not satisfied

[Q] Can you handle `CC(C)n1c2ccc(Br)cc2c2c3c(c4c5ccccc5ccc4c21)C(=O)NC3=O` next?
[A] satisfied

[Q] Can you handle CCCC(=O)NC(c1ccc2c(c1)OCO2)c1cc(Cl)c2cccnc2c1O (stereo not given) next?
[A] not satisfied

[Q] Can you handle `O=C(O)c1cn(C2CC2)c2cc(N3CCN(C(=O)N4CCOCC4)CC3)c(F)cc2c1=O` next?
[A] satisfied

[Q] Can you handle `Cc1cc(Cl)nc(N2CCN(CCNc3ccnc4cc(Cl)ccc34)CC2)n1` next?
[A] not satisfied

[Q] Can you handle `c1ccc2cc(Cn3cc(CSc4nc5ccccc5s4)nn3)ccc2c1` next?
[A] satisfied

[Q] Can you handle `c1cc(OCCN2CCCCC2)ccc1CNc1ccc2nc(CCC3CCCCC3)[nH]c2c1` next?
[A] not satisfied

[Q] Can you handle `O=C(C[C@]1(O)C(=O)Nc2ccc(Br)cc21)c1ccco1` next?
[A] satisfied

[Q] Can you handle `CCN(CC)CCN1C(=O)c2c(c3c4ccccc4[nH]c3c3ccc4ccccc4c23)C1=O` next?
[A] not satisfied

[Q] Can you handle `O=c1oc2c(cnc3ccccc32)cc1-c1cccc(Cl)c1` next?
[A] satisfied

[Q] Can you handle `C[N+]1=C(/C=C/c2ccccc2Cl)C(C)(C)c2ccccc21` next?
[A] satisfied

[Q] Can you handle `O=C(NCCCCCCNC(=O)OCc1ccc2c(Cl)cc(Cl)c(O)c2n1)OCc1ccc2c(Cl)cc(Cl)c(O)c2n1` next?
[A] not satisfied

[Q] Can you handle `Cc1[nH]n(-c2cccc(Cl)c2)c(=O)c1/C=C1\C=c2ccccc2=CC1=O` next?
[A] not satisfied

[Q] Can you handle `Cc1ccc(-c2nc(SCC(=O)N3CCN(c4cc5c(cc4F)c(=O)c(C(=O)O)cn5C4CC4)CC3)nc(Cl)c2C#N)cc1` next?
[A] satisfied

[Q] Can you handle `CCOc1ccc(NC(=O)Nc2ccc(OCC)cc2)cc1` next?
[A] satisfied

[Q] Can you handle `Cn1cc(-c2nc3c(F)cc4[nH]ncc4c3c3c2CCCC3)c(C(F)(F)F)n1` next?
[A] not satisfied

[Q] Can you handle `Cc1sc2nc(NCCN)[nH]c(=O)c2c1C` next?
[A] satisfied

[Q] Can you handle `O=c1oc2c(cc1-c1ccccc1)c(=O)[nH]c1ccccc12` next?
[A] satisfied

[Q] Can you handle `O=C(Nc1ccc(Oc2cccc(Cl)c2)c(Cl)c1)c1cccnn1` next?
[A] not satisfied

[Q] Can you handle `C#Cc1cccc(Nc2ncnc3cc(NC(=O)CCl)ccc23)c1` next?
[A] not satisfied
